Quick reference for MBC among some molecules
Tested on: Staphylococcus aureus
METHOD: Bactericidal activity against Staphylococcus aureus MLS16 MTCC 2940 after 24 hrs by serial dilution method
Assay type: functional
CONDITION: MLS16 MTCC 2940, 24 h

- SMILES: "CCCCCCCCCCCCCCCCCCN(CCCCCCCCCCC(=O)OC)CCCCCCCCCCC(=O)OC"
  MBC: "> 125 µg/mL"
- SMILES: "CCCCCCNCCCCCCCCCCC(=O)OC"
  MBC: "7.8 µg/mL"
- SMILES: "CCCCCCCCN(CCCCCCCC)CCCCCCCCCCC(=O)OC"
  MBC: "> 125 µg/mL"
- SMILES: "CCCCCCCCCCCCCCCCCC[N+](C)(CCCCCCCCCCC(=O)OC)CCCCCCCCCCC(=O)OC.[Cl-]"
  MBC: "> 125 µg/mL"
- SMILES: "COC(=O)CCCCCCCCCCN(C1CCCCC1)C1CCCCC1"
  MBC: "> 125 µg/mL"
- SMILES: "CCCCCCN(CCCCCCCCCCC(=O)OC)CCCCCCCCCCC(=O)OC"
  MBC: "> 125 µg/mL"
- SMILES: "CCCCCC[N+](C)(CCCCCCCCCCC(=O)OC)CCCCCCCCCCC(=O)OC.[Cl-]"
  MBC: "3.9 µg/mL"
- SMILES: "CCCCCCCCCCCCCCCCCC[N+](C)(C)CCCCCCCCCCC(=O)OC.[Cl-]"
  MBC: "> 125 µg/mL"
- SMILES: "CCCCCCCCCCCC[N+](C)(CCCCCCCCCCC(=O)OC)CCCCCCCCCCC(=O)OC.[Cl-]"
  MBC: "> 125 µg/mL"
- SMILES: "COC(=O)CCCCCCCCCC[N+](C)(C1CCCCC1)C1CCCCC1.[Cl-]"
  MBC: "7.8 µg/mL"
- SMILES: "CCCCCC[N+](C)(C)CCCCCCCCCCC(=O)OC.[Cl-]"
  MBC: "15.6 µg/mL"

###

System: Candida parapsilosis
METHOD: Antimicrobial activity against Candida parapsilosis MTCC 1744 assessed as growth inhibition after 24 hrs by agar well diffusion method
Type: functional
CONDITION: Lodderomyces parapsilosis, MTCC 1744, 24 h
Reported MIC values follow for various molecules

- MOLECULE: "CCCCCCCC[N+](C)(CCCCCCCC)CCCCCCCCCCC(=O)OC.[Cl-]"
  MIC: "62.5 µg/mL"
- MOLECULE: "CCCCCCCCCCCC[N+](C)(C)CCCCCCCCCCC(=O)OC.[Cl-]"
  MIC: "62.5 µg/mL"
- MOLECULE: "CCCCCC[N+](C)(CCCCCCCCCCC(=O)OC)CCCCCCCCCCC(=O)OC.[Cl-]"
  MIC: "15.6 µg/mL"
- MOLECULE: "COC(=O)CCCCCCCCCC[N+](C)(C1CCCCC1)C1CCCCC1.[Cl-]"
  MIC: "15.6 µg/mL"
- MOLECULE: "Clc1ccc(COC(Cn2ccnc2)c2ccc(Cl)cc2Cl)c(Cl)c1 (configuration not stated) [MICONAZOLE]"
  MIC: "7.8 µg/mL"
- MOLECULE: "CCCCCC[N+](C)(C)CCCCCCCCCCC(=O)OC.[Cl-]"
  MIC: "15.6 µg/mL"
- MOLECULE: "CCCCCCNCCCCCCCCCCC(=O)OC"
  MIC: "31.2 µg/mL"
